- TESTED_TARGET: human recombinant PDE5A1 (Homo sapiens)
- EXPERIMENTAL_DETAILS: PDE5 fluorescent
OBSERVED_PROPERTY: pIC50
Please keep in mind that pIC50 is minus log10 of the molar concentration; only the number is needed.

Noted pIC50 for COc1ccc(CNc2c3c(nc4ccccc24)CCN(C(C)=O)C3)cc1Cl [17a] , tested on human recombinant PDE5A1 (Homo sapiens): 6.96
